Quick reference for log10 IC50 among some compounds
- System: A-549 (human lung carcinoma)
- ASSAY_TEXT: Seven-day in vitro cytotoxicity, A-549
- Type: cell-based
- CONDITION_DESCRIPTION: A549, 168 h, read-out: A-549 ED50
Record value = log10 of IC50 given in ng/mL.

COMPOUND | READOUT | RECORDED_MEASUREMENT
CCCCCCCCCC[C@@H](O)[C@H]1CC[C@H]([C@H](O)CC[C@H](O)[C@@H]2CC[C@@H](CCCCCCC[C@@H]3CC(CC(C)=O)C(=O)O3)O2)O1 (stereo partly drawn) [Compound 24, (2,4-Cis and trans)bullatanocinones, reference compound] | log10 IC50 | -0.19
CCCCCCCCCC[C@H](O)[C@H]1CC[C@H]([C@H](O)CC[C@H](O)[C@@H]2CC[C@@H](CCCCCCC[C@@H]3CC(CC(C)=O)C(=O)O3)O2)O1 (stereo partly drawn) [Compound 26, (2,4-Cis and trans)-bullatalicinones, reference compound] | log10 IC50 | -1.25
CCCCCC[C@H](O)CCC[C@H](O)[C@H]1CC[C@H]([C@H](O)CC[C@H](O)[C@@H]2CC[C@@H](CCCCCCCCCC3=C[C@H](C)OC3=O)O2)O1 [Compound 13, Squamostatin A, reference compound] | log10 IC50 | -0.57
CCCCCCCCCCCCCC[C@@H](O)[C@H]1CC[C@@H]([C@@H]2CC[C@@H](CCCCC[C@@H](O)CC3=C[C@H](C)OC3=O)O2)OCO1 [Compound 11, 14,17-formaldehyde acetal derivative] | log10 IC50 | -0.10

Next item in the queue.
Input line: Form entry - test system: A-549 (human lung carcinoma); read-out: log10 IC50; compound: COc1cccc2c1C(=O)c1c(O)c3c(c(O)c1C2=O)C[C@@](O)(C(=O)CO)C[C@@H]3O[C@H]1C[C@H](N)[C@H](O)[C@H](C)O1 [Adriamycin, adriamycin, reference compound]
Output line: 0.62
